Collected MIC values appear next to each entry.
- Test system: Staphylococcus aureus
- Procedure text: In vitro antibacterial activity against Staphylococcus aureus SG 503 by agar dilution method using Mueller-Hinton
- Format: functional
# value in µg/mL; strip the unit string

The examples below pair each entry with its known result.
{"Molecule": "C[C@@H](O)[C@H]1C(=O)N2C(C(=O)O)=C(S[C@@H]3CN[C@H](CSc4nnnn4CCS(=O)(=O)N(C)C)C3)[C@H](C)[C@H]12", "MIC, µg/mL": 0.025}
{"Molecule": "C[C@@H](O)[C@H]1C(=O)N2C(C(=O)O)=C(S[C@@H]3CN[C@H](CSc4nnnn4-c4ccccc4)C3)[C@H](C)[C@H]12", "MIC, µg/mL": 0.025}
{"Molecule": "C[C@@H](O)[C@H]1C(=O)N2C(C(=O)O)=C(S[C@@H]3CN[C@H](C(=O)N(C)C)C3)[C@H](C)[C@H]12", "MIC, µg/mL": 0.098}

Now examine the next entry.
Entry C[C@@H](O)[C@H]1C(=O)N2C(C(=O)O)=C(SCCNC=N)C[C@H]12 [IMIPENEM ANHYDROUS] , system Staphylococcus aureus: what MIC was measured?
0.013

###

- Tested on: Streptococcus pyogenes
- Procedure text: In vitro antibacterial activity against Streptococcus pyogenes 308A by agar dilution method using Mueller-Hinton
- Type: functional
Collected MIC values appear next to each entry.
Please format your answer as a value with the unit trailing.

The examples below pair each entry with its known result.
{"Molecule": "C[C@@H](O)[C@H]1C(=O)N2C(C(=O)O)=C(S[C@@H]3CN[C@H](CSc4nnnn4CCC(N)=O)C3)[C@H](C)[C@H]12", "MIC": "13 ng/mL"}
{"Molecule": "C[C@@H](O)[C@H]1C(=O)N2C(C(=O)O)=C(S[C@@H]3CN[C@H](CSc4nnnn4CCO)C3)[C@H](C)[C@H]12", "MIC": "7 ng/mL"}
{"Molecule": "CNC(=O)CCn1nnnc1SC[C@@H]1C[C@H](SC2=C(C(=O)O)N3C(=O)[C@H]([C@@H](C)O)[C@H]3[C@H]2C)CN1", "MIC": "7 ng/mL"}
{"Molecule": "C[C@@H](O)[C@H]1C(=O)N2C(C(=O)O)=C(SCCNC=N)C[C@H]12 [IMIPENEM ANHYDROUS]", "MIC": "7 ng/mL"}
{"Molecule": "C[C@@H](O)[C@H]1C(=O)N2C(C(=O)O)=C(S[C@@H]3CN[C@H](CSc4nnnn4C)C3)[C@H](C)[C@H]12", "MIC": "4 ng/mL"}

Return reported MIC; argument: "CNS(=O)(=O)CCn1nnnc1SC[C@@H]1C[C@H](SC2=C(C(=O)O)N3C(=O)[C@H]([C@@H](C)O)[C@H]3[C@H]2C)CN1"
7 ng/mL

Return reported MIC; argument: "C[C@@H](O)[C@H]1C(=O)N2C(C(=O)O)=C(S[C@@H]3CN[C@H](CSc4nnnn4CCS(=O)(=O)N(C)C)C3)[C@H](C)[C@H]12"
7 ng/mL

Return reported MIC; argument: "CNC(=O)Cn1nnnc1SC[C@@H]1C[C@H](SC2=C(C(=O)O)N3C(=O)[C@H]([C@@H](C)O)[C@H]3[C@H]2C)CN1"
13 ng/mL
